- protocolSummary: Selectivity index, ratio of IC50 for human HKC8 cells to MIC for methicillin-resistant Staphylococcus aureus MW2
- Type: toxicity
- details: read-out: Selectivity Index
The entries below are paired with their reported selectivity ratio.
Form: value (number only, do not type unit).

CCSC(=S)c1c(C)nn(-c2ccccc2)c1O :: 1
CCCSC(=S)c1c(-c2ccc(OC)cc2)nn(-c2ccccc2)c1O :: 4
CCCSC(=S)c1c(C)nn(-c2ccccc2)c1O :: 1
CCCSC(=S)c1c(-c2ccccc2)nn(-c2ccccc2)c1O :: 16
CSC(=S)c1c(C)nn(-c2ccccc2)c1O :: 1

Recorded selectivity ratio of CCCSC(=S)c1c(-c2ccc([N+](=O)[O-])cc2)nn(-c2ccccc2)c1O , please. 0.5

Recorded selectivity ratio of CCCSC(=S)c1c(-c2ccc(F)cc2)nn(-c2ccccc2)c1O , please. 4

Recorded selectivity ratio of CCCSC(=S)c1c(C)nn(-c2ccc([N+](=O)[O-])cc2)c1O , please. 1

----------
- protocolSummary: Cytotoxicity against human HKC8 cells after 24 hrs by WST1 assay
- Format: cell-based
- details: HKC8, 24 h
The entries below are paired with their reported IC50.
Numbers only here, please. The scale is µg/mL.

Some solved cases for reference:
CCCSC(=S)c1c(-c2ccccc2)nn(-c2ccccc2)c1O :: 32
CCCSC(=S)c1c(-c2ccc(OC)cc2)nn(-c2ccccc2)c1O :: 8
CCCCSC(=S)c1c(C)nn(-c2ccccc2)c1O :: 4
CSC(=S)c1c(C)nn(-c2ccccc2)c1O :: 16
CCCSC(=S)c1c(-c2ccc([N+](=O)[O-])cc2)nn(-c2ccccc2)c1O :: 0.5
CCSC(=S)c1c(C)nn(-c2ccccc2)c1O :: 8
CCCSC(=S)c1c(-c2ccc(F)cc2)nn(-c2ccccc2)c1O :: 4
CCCSC(=S)c1c(C)nn(-c2ccccc2)c1O :: 4

Recorded IC50 of CCCSC(=S)c1c(-c2ccc(C)cc2)nn(-c2ccccc2)c1O , please. 8

Recorded IC50 of Cc1nn(-c2ccccc2)c(O)c1C(=S)SCc1ccccc1 , please. 32

Recorded IC50 of CCCSC(=S)c1c(-c2ccc(Cl)cc2)nn(-c2ccccc2)c1O , please. 4

----------
The entries below are paired with their reported selectivity ratio.
- protocolSummary: Selectivity index, ratio of IC50 for human HKC8 cells to MIC for methicillin-resistant Staphylococcus aureus MW2
- Type: toxicity
- details: read-out: Selectivity Index

Some solved cases for reference:
Cc1nn(-c2ccccc2)c(O)c1C(=S)SCc1ccccc1 :: 8 to 16
C=CCSC(=S)c1c(C)nn(-c2ccccc2)c1O :: 2 to 4
CCCSC(=S)c1c(-c2ccc(Cl)cc2)nn(-c2ccccc2)c1O :: 4 to 8
CCCCSC(=S)c1c(C)nn(-c2ccccc2)c1O :: 1 to 2

Recorded selectivity ratio of CCCSC(=S)c1c(-c2ccc(C)cc2)nn(-c2ccccc2)c1O , please. 4 to 8
